Reference source for all entries: the kinase profiling compilation of Christmann-Franck et al. (2016)

Target: BRSK1 (human)
Test: radiometric filter-binding kinase assay
Conditions: compound 10.0 µM
measure.name: residual activity (%)

For orientation, consider the following solved cases.
c1ccc2c(-c3cnn4cc(-c5ccc(N6CCNCC6)cc5)cnc34)ccnc2c1; 57
CN1C(=O)[C@@H](Cc2c[nH]c3ccccc23)NC1=S; 103
CCOC(=O)c1ccc(N2NC(=O)/C(=C/c3ccc([N+](=O)[O-])o3)C2=O)cc1; 86
N#Cc1c(C2CCNCC2)cc(-c2c(O)cccc2OCC2CC2)nc1N; 58
Oc1ccc(/C=C/c2cc(O)cc(O)c2)cc1; 56
Nc1cccc2c1CN(C1CCC(=O)NC1=O)C2=O (stereo unspecified); 94

a. NC(=O)c1cc2c(-c3cccc(-c4ccccc4)c3)cnc(N)c2s1
b. CCNc1nc(Nc2cc(F)c(C(=O)N3CCOCC3)cc2OC)ncc1C(F)(F)F
c. Cc1ccc(-c2ccc3c(ccc4sc5c(c43)NC[C@@H](C)NC5=O)n2)cn1
Request: Please produce an ascending ranking of these compounds based on residual activity. Response field: labels, in requested order.
Result: c, b, a
